tested on: Ipomoea hederacea (IPOHE); experiment: Pre-emergence herbicidal glasshouse test on Ipomoea hederacea; assay type: in vivo; details: pre-emergence; 1000 g/h; evaluated after 13 days
Reported endpoint: PRE Application IPOHE herbicidal damage (five point scale)

> print(dat)
                                    molecule                result
 1  CCOc1nn(C)c(=O)c(O)c1-c1ccc(C(F)(F)F)cc1S(C)(=O)=O [Compound 2.050]  5 (5=80-100% damage)
 2  Cc1c(Cl)ccc(-c2cnn(C)c(=O)c2O)c1F [Compound 1.045]    1 (1=0-19% damage)
 3  Cc1c(-c2cnn(C)c(=O)c2O)ccc(S(C)(=O)=O)c1C1=NOCC1 [Compound 1.018]  5 (5=80-100% damage)
 4  COCn1ncc(-c2ccc(C(F)(F)F)cc2[S+](C)[O-])c(O)c1=O (stereo not drawn) [Compound 1.146]   4 (4=60-79% damage)
 5  Cn1ncc(-n2ccc(C(F)(F)F)c(-c3ccc(C(F)(F)F)nc3)c2=O)c(O)c1=O [Compound 7.010]  5 (5=80-100% damage)
 6  Cn1ncc(-c2cccn(-c3cccc(C#N)c3)c2=O)c(O)c1=O [Compound 1.138]    1 (1=0-19% damage)
 7  CCn1ncc(-c2ccc(Cl)cc2S(C)(=O)=O)c(O)c1=O [Compound 2.017]  5 (5=80-100% damage)
 8  Cn1ncc(-c2ccc(C(F)(F)F)nc2OCc2cccc(Cl)c2)c(O)c1=O [Compound 4.009]    1 (1=0-19% damage)
 9  CC(C)N(C)S(=O)(=O)c1nc(C(F)(F)F)ccc1-c1cnn(C)c(=O)c1O [Compound 4.017]  5 (5=80-100% damage)
10  Cc1c(-c2cnn(C3CC3)c(=O)c2O)ccc(S(C)(=O)=O)c1C1=NOCC1 [Compound 1.008]   3 (3=40-59% damage)
11  Cn1ncc(-c2cnc(C(F)(F)F)nc2N2CCOCC2)c(O)c1=O [Compound 8.001]   3 (3=40-59% damage)
12  Cc1cc(C#N)ccc1-c1cnn(C)c(=O)c1O [Compound 1.084]    1 (1=0-19% damage)
13  Cn1ncc(-n2ccc(C(F)(F)F)c(-c3cccc(Cl)c3)c2=O)c(O)c1=O [Compound 1.037]    1 (1=0-19% damage)
14  Cn1ncc(-c2cc3cccnc3nc2C(F)(F)F)c(O)c1=O [Compound 1.039]  5 (5=80-100% damage)
15  CCCn1ncc(-c2ccc(C(F)(F)F)cc2Cl)c(O)c1=O [Compound 1.126]    1 (1=0-19% damage)
16  Cc1cc(F)ccc1-c1cnn(C)c(=O)c1O [Compound 1.093]    1 (1=0-19% damage)
17  Cn1ncc(-c2ccccc2[S+](C)[O-])c(O)c1=O (stereo not drawn) [Compound 1.036]    1 (1=0-19% damage)
18  Cc1ccc(-c2cnn(C)c(=O)c2O)c(S(C)(=O)=O)c1 [Compound 2.031]   3 (3=40-59% damage)

====

Test system: Ipomoea hederacea (IPOHE)
Experiment: Pre-emergence herbicidal glasshouse test on Ipomoea hederacea
Type: in vivo
Conditions: pre-emergence; 1000 g/h; evaluated after 13 days
Experimental: Seeds of a variety of test species are sown in standard soil in pots (Alopecurus myosuroides (ALOMY), Setaria faberi (SETFA), Echinochloa crus-galli (ECHCG), Solanum nigrum (SOLNI), Amaranthus retoflexus (AMARE), Ipomoea hederacea (IPOHE)). […] After 13 days for pre and post-emergence, the test is evaluated for the percentage herbicidal damage caused to the plant. […]
Reported endpoint: PRE Application IPOHE herbicidal damage (five point scale)

> print(dat)
                                    compound                result
 1  Cn1ncc(-c2ccc(S(C)(=O)=O)c(COCC(F)(F)F)c2Cl)c(O)c1=O [Compound 1.049]    1 (1=0-19% damage)
 2  CC(C)c1cccc(-c2c(C(F)(F)F)ccn(-c3cnn(C)c(=O)c3O)c2=O)c1 [Compound 7.014]    1 (1=0-19% damage)
 3  Cc1cc(-c2cnn(C)c(=O)c2O)c(=O)n(-c2ccccc2)c1 [Compound 6.001]    1 (1=0-19% damage)
 4  CCCn1ncc(-c2ccc(S(C)(=O)=O)c(C3=NOCC3)c2Cl)c(O)c1=O [Compound 1.125]    1 (1=0-19% damage)
 5  Cc1cc(-c2cnn(C)c(=O)c2O)c(=O)n(-c2ccsc2)c1 [Compound 6.002]   2 (2=20-39% damage)
 6  Cn1ncc(-c2ccc(C(F)(F)F)n(-c3cccc(C(F)(F)F)n3)c2=O)c(O)c1=O [Compound 9.001]    1 (1=0-19% damage)
 7  Cn1ncc(-c2ccc(C(F)(F)F)nc2S(C)(=O)=O)c(O)c1=O [Compound 4.003]  5 (5=80-100% damage)
 8  C=Cc1nn(C)c(=O)c(O)c1-c1ccc(S(C)(=O)=O)c(C2=NOCC2)c1C [Compound 2.020]    1 (1=0-19% damage)
 9  Cc1c(-c2cnn(C)c(=O)c2O)ccc2c1C(=O)N(C)S2(=O)=O [Compound 1.035]   4 (4=60-79% damage)
10  Cn1ncc(-c2ccc(C#N)cc2C(F)(F)F)c(O)c1=O [Compound 1.071]   2 (2=20-39% damage)
11  Cn1ncc(-c2ccc(C#N)cc2S(C)(=O)=O)c(O)c1=O [Compound 1.141]  5 (5=80-100% damage)
12  Cn1ncc(-n2ccc(C(F)(F)F)c(-c3cc(F)c(F)c(F)c3)c2=O)c(O)c1=O [Compound 7.017]   4 (4=60-79% damage)
13  Cn1ncc(-c2ccc(C(F)(F)F)cc2S(C)(=O)=O)c(O)c1=O [Compound 1.028]  5 (5=80-100% damage)
14  Cc1c(-c2cnn(C(C)C)c(=O)c2O)ccc(S(C)(=O)=O)c1C1=NOCC1 [Compound 1.012]   4 (4=60-79% damage)
15  C=CCn1c(C(F)(F)F)ccc(-c2cnn(C)c(=O)c2O)c1=O [Compound 9.011]    1 (1=0-19% damage)
16  Cn1ncc(-c2ccc(C(F)(F)F)nc2S(=O)(=O)N2CCOCC2)c(O)c1=O [Compound 4.016]  5 (5=80-100% damage)
17  Cn1ncc(-c2ccc(-c3ccccc3)cc2S(C)(=O)=O)c(O)c1=O [Compound 2.033]    1 (1=0-19% damage)
18  COCn1ncc(-c2ccccc2[S+](C)[O-])c(O)c1=O (centres unmarked) [Compound 1.145]    1 (1=0-19% damage)
19  Cn1ncc(-c2ccc(COCC(F)(F)F)cc2S(C)(=O)=O)c(O)c1=O [Compound 2.053]    1 (1=0-19% damage)
20  Cn1ncc(-c2ccccc2Cl)c(O)c1=O [Compound 1.114]    1 (1=0-19% damage)
21  C=Cc1cccc(-c2c(C(F)(F)F)ccn(-c3cnn(C)c(=O)c3O)c2=O)c1 [Compound 7.011]   2 (2=20-39% damage)
22  CCCn1ncc(-c2c(Cl)ccc(Cl)c2Cl)c(O)c1=O [Compound 1.128]    1 (1=0-19% damage)
23  Cc1ccc(-c2c(C(F)(F)F)ccn(-c3cnn(C)c(=O)c3O)c2=O)cc1 [Compound 7.006]   2 (2=20-39% damage)
24  C=Cn1ncc(-c2ccccc2S(C)(=O)=O)c(O)c1=O [Compound 2.054]   4 (4=60-79% damage)
25  CC(C)S(=O)(=O)c1ccccc1-c1cnn(C)c(=O)c1O [Compound 1.044]    1 (1=0-19% damage)
26  Cn1ncc(-n2ccc(C(F)(F)F)c(-c3ccc(C(F)(F)F)cc3)c2=O)c(O)c1=O [Compound 7.035]   3 (3=40-59% damage)
27  C=Cc1ccc(-c2cnn(C)c(=O)c2O)c(S(C)(=O)=O)c1 [Compound 1.139]   4 (4=60-79% damage)
28  Cn1ncc(-c2ccc(Cl)cc2[N+](=O)[O-])c(O)c1=O [Compound 1.109]    1 (1=0-19% damage)
29  Cc1ccc(-c2cnn(C)c(=O)c2O)c(Cl)c1 [Compound 1.098]    1 (1=0-19% damage)
30  CCCCS(=O)(=O)c1ccccc1-c1cnn(C)c(=O)c1O [Compound 1.051]    1 (1=0-19% damage)
31  COCCOCc1nc(C(F)(F)F)ccc1-c1cnn(C)c(=O)c1O [Compound 1.072]  5 (5=80-100% damage)
32  Cn1ncc(-c2c(F)cnc(F)c2F)c(O)c1=O [Compound 1.149]    1 (1=0-19% damage)
33  Cn1ncc(-c2cccn(CC3CC3)c2=O)c(O)c1=O [Compound 9.006]    1 (1=0-19% damage)
34  Cn1ncc(-c2ccc(Cl)c(F)c2Cl)c(O)c1=O [Compound 1.092]    1 (1=0-19% damage)
35  Cn1ncc(-c2ccc(C(F)(F)F)cc2S(=O)(=O)N2CCOCC2)c(O)c1=O [Compound 2.049]   4 (4=60-79% damage)
